# TARGET_OR_TEST_SYSTEM: T1, cynomolgus (cyno) TMEM106B (cynomolgus, UniProt Q9NUM4 2-274 (human entry))
# T1 construct: on transiently transfected HEK293 cells
# ASSAY_PROTOCOL: FACS, HEK293 transfectants;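 further: flow cytometry binding of hybridoma supernatants to HEK293 cells transiently expressing human, cyno or mouse TMEM106B, read as anti-mouse-APC median fluorescence, live cells only, 30 min on ice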
RECORDED_METRIC: fold-change over parental HEK293 (fold)
Respond with the bare value in fold.

Recorded fold-change over parental HEK293 for anti-TMEM106B antibody TM-52 (antibody, V domains shown, mouse IgG from hybridoma) VH: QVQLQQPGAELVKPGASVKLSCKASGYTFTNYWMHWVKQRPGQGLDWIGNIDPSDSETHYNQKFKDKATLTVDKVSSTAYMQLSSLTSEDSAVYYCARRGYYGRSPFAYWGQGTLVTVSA VL: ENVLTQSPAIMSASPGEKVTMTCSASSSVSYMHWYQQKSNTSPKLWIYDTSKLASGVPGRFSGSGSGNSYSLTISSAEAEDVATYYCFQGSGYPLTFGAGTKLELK , please?
22.6

Further cases:
Record request: fold-change over parental HEK293 value, item anti-TMEM106B antibody TM-19 (antibody, V domains shown) VH: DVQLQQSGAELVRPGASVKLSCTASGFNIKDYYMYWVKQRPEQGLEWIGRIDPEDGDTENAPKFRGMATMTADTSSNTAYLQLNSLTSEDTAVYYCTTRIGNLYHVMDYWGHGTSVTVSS VL: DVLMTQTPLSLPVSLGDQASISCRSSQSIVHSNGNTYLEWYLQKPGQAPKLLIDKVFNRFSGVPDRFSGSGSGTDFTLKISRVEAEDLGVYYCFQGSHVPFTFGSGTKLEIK
34.9
